Tested on: Cryptococcus neoformans
Method: Broth microdilution antifungal susceptibility, NCCLS M38-A
Condition Set: strain 11239; 50% growth inhibition; range = minimum and maximum of multiple assays

>  <Compound>
CC[C@H]1O[C@@H](/C(C)=C/[C@H](C)/C=C/[C@H]2[C@@H](C)[C@@H]2/C=C/[C@@H]2O[C@H](CC(=O)O)C[C@H](N(C)CC)[C@H]2O)CC=C1C

>  <Readout Unit>
µg/mL

>  <MIC C. neoformans 11239>
2

$$$$
>  <Compound>
CC[C@H]1O[C@@H](/C(C)=C/[C@H](C)/C=C/[C@H]2[C@@H](C)[C@@H]2/C=C/[C@@H]2O[C@H](CC(=O)O)C[C@H](N(C)Cc3cccnc3)[C@H]2O)CC=C1C

>  <Readout Unit>
µg/mL

>  <MIC C. neoformans 11239>
0.5

$$$$
>  <Compound>
CC[C@H]1O[C@@H](/C(C)=C/[C@H](C)/C=C/[C@H]2[C@@H](C)[C@@H]2/C=C/[C@@H]2O[C@H](CC(N)=O)C[C@H](N(C)C)[C@H]2O)CC=C1C [I-hh, (5S,6R)-5-(dimethylamino)polyangiamide]

>  <Readout Unit>
µg/mL

>  <MIC C. neoformans 11239>
1

$$$$
>  <Compound>
CC[C@H]1O[C@@H](/C(C)=C/[C@H](C)/C=C/[C@H]2[C@@H](C)[C@@H]2/C=C/[C@@H]2O[C@H](CC(=O)O)CC(=O)[C@H]2O)CC=C1C [5-keto ambruticin S, (6R)-5-Oxo-6-hydroxypolyangioic acid, reference compound]

>  <Readout Unit>
µg/mL

>  <MIC C. neoformans 11239>
2

$$$$
>  <Compound>
CC[C@H]1O[C@@H](/C(C)=C/[C@H](C)/C=C/[C@H]2[C@@H](C)[C@@H]2/C=C/[C@@H]2O[C@H](CC(=O)O)C[C@H](NC(C)C)[C@H]2O)CC=C1C

>  <Readout Unit>
µg/mL

>  <MIC C. neoformans 11239>
0.125

$$$$
